- test.system: HLA-A*0203 (human)
- measurement.description: competition with 125I-labelled standard peptide for purified HLA, gel filtration
Recorded measurements of IC50, one per entry

binder	IC50
MMNDQLMFL (modifications not checked) [peptide 1126.01 (PSM.663)]	1.7 nM
VLAGGFFLV (modifications not checked) [peptide 1389.20 (PSM.27.V9)]	5 nM
FLTLSVTWIGV (modifications not checked) [peptide 1419.27 (PSA.3.V11)]	18 nM
